// data source = PubChem BioAssay (NCI)

Tested on: NCI-H23 lung
testSummary: NCI tumour cell line growth inhibition, 48 h; in the data active means GI50 below about 0.43 µM; inactive means the rest
Form entry, call: pick from active, inactive

                             moleculesmiles        system  category
0      Clc1ccc2c(c1)C(N1CCNCC1)=Nc1ccccc1O2  NCI-H23 lung  inactive
1  CCCCN(CCCC)CCc1c(C)cc(C)c(CCN(CCCC)CCCC)c1O  NCI-H23 lung  inactive
2  Cc1cc2nc(-c3c(N)ncc(C#N)c3-c3ccc(Cl)cc3)[nH]c2cc1C  NCI-H23 lung  inactive
3  COc1ccc(NC(=O)n2nc(/C=C\c3ccc(O)c(OC)c3)cc2/C=C\c2ccc(O)c(OC)c2)cc1  NCI-H23 lung  inactive

IN: Could you kindly confirm the outcome this assay logged for O=C(N/N=C/c1ccc(Cl)cc1)c1[nH]c2ccc(Cl)cc2c1-c1ccccc1 ?
OUT: active

IN: Param item: CCOC(=O)Nc1nc2cc(OCC)ccc2s1
OUT: inactive

IN: And CCOC(=O)c1c2c(n(Cc3ccccc3)c1C)-c1nc(Cc3ccccc3)[nH]c1C(=O)C2=O ?
OUT: inactive

IN: Let us now turn to COC(=O)c1cc(-c2ccc(OC)cc2)[nH]c1N/N=C/c1c(Cl)cccc1Cl
OUT: active

IN: And what about the compound CCC[CH2][Sn]1([CH2]CCC)[O]C(=O)c2ccc(N)cc2[O]1 ?
OUT: active

---

Test system: MALME-3M melanoma
testSummary: NCI tumour cell line growth inhibition, 48 h
measurementLabel: TGI

Worked examples follow.
compound	system	TGI
O=C(O)CCSC1=NCCN1	MALME-3M melanoma	> 100 µM
COc1cc2cc(C(=O)N3CC(CCl)c4c3cc(NC(=O)C(C)Nc3c([N+](=O)[O-])cc(C(=O)NCCN(C)C)cc3[N+](=O)[O-])c3ccccc43)[nH]c2c(OC)c1OC (stereo not drawn)	MALME-3M melanoma	0.27 µM

Please look at the following compound next.
IN: Can you share its TGI? I mean this compound: COc1cc(S(=O)(=O)Nc2ccc(-c3csc(/N=C\c4ccccc4)n3)cc2)ccc1Cl
OUT: > 100 µM

---

// reported TGI for each item listed
System: SN12C renal
testSummary: NCI tumour cell line growth inhibition, 48 h

compound	TGI
O=C(CSc1nc(-c2ccccc2)c(-c2ccccc2)[nH]1)NNC(=S)Nc1ccccc1	> 100 µM
O=C1/C(=C/c2ccc(O)cc2)CCC1CNc1ccccc1 (centres undefined)	29.2 µM
CC1=C(/C=C/C(C)=C/C=C/C(C)=C/C=C/C=C(C)/C=C/C=C(C)/C=C/C2=C(C)C(=O)C(O)CC2(C)C)C(C)(C)CC(O)C1=O (centres undefined)	> 100 µM

IN: What value of TGI has been reported for the following compound? Clc1ccc2c(c1)C(N1CCNCC1)=Nc1ccccc1O2
OUT: 13.6 µM

IN: Item: Cc1c(Cl)cccc1NC(=O)/C(Cl)=C(\Cl)C(=O)O
OUT: 31.2 µM

---

Test system: DMS 114 small cell lung
testSummary: NCI tumour cell line growth inhibition, 48 h
measurementLabel: TGI

In the examples that follow, each entry is paired with its recorded TGI.
                                   compound  observedvalue
0                  Nc1cc2[nH]cnc2c(=O)[nH]1       > 300 µM
1                      ClCc1ccc(C2OCCO2)cc1      > 42.9 µM
2  CCOC(=O)C1=C(Nc2ccc(Cl)c(Cl)c2)OC/C1=N\NC(=O)Cc1ccccc1       > 100 µM
3                  S=P(N1CCCC1)(N1CC1)N1CC1       > 100 µM
4  CN1C(=O)C2C=CC1C1CCC2N(C)C1=O (stereo unspecified)       > 100 µM

Then there is this compound:
IN: Please state recorded TGI (tested on DMS 114 small cell lung) of COc1ccc2ccccc2c1CN1CCOCCOCCN(Cc2c(OC)ccc3ccccc23)CCOCCOCC1
OUT: > 100 µM
